Reference source: patent US20260193326A1

Consider the following binders; for each one, report its koff.
# MEASUREMENT TARGET: T1, AAV5 (adeno-associated virus 5)
# T1 construct: also called adeno-associated virus serotype 5
# MEASUREMENT DESCRIPTION: SPR, AAV amine-coupled to CM5 chip;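 further: nanobodies flowed as analyte at seven concentrations spanning 1–100 nM over immobilized AAV (500–800 RU), kinetic constants derived by fitting the binding curves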
// return the numeric value with its unit appended

Provide each entry's koff from the list below.
1. A4-057 (VHH) VHH: VQLQESGGGLVQPGGSLRLSCAASGSIFSINTMGWYRQAPGKQREKVAAVTRGGSTNYADSVKGRFTISRDNAKNTVYLQMNSLRPEDTAVYYCHVDEVRQSSWTTSNLWGQGTQVTVSS
2. A4-065 (VHH) VHH: VQLQESGGGLVQSGGSLRLSCAASGRNFSLNTVGWYRQAPGKQRELVATVTRGGSTNYAGSVKGRFTISRDNAKNTVYLQMNSLRPEDTAVYYCHVDEVRESSWTTSNLWGQGTQVTVSS

RESULT:
["0.00027 s⁻¹", "0.00155 s⁻¹"]

Quick batch: koff for everything below.
1. A4-071 (VHH) VHH: VQLQESGGGAVQAGGSLRLSCAASGSTFSINTMGWYRQAPGKQRELVATVTRGGSTNYGDFVKGRFTISRDNAKNTVYLQMNTLRPEDTAVYYCHLDEVRQSSWTTSNLWGQGTQVTVSS
2. A4-053 (VHH) VHH: VQLQESGGGLVQPGGSLRLSCAASGSIFIINTMGWYRRAPGKQRELVAAVTRGGSTNYADSVKGRFTISRDNAKNTVYLQMNSLRPEDTAVYYCHVDEVRQSSWTTSNLWGQGTQVTVSS
3. A4-078 (VHH) VHH: VQLQESGGGLVQPGGSLRLSCLASGTMFSLNTMGWYRQAPGKQRELVATVTRGGSTNYADFVKGRFTISRDNAKNTVYLQMNSLRPEDTAVYYCHVDEVRDSSWTTSNLWGQGTQVTVSS
4. A4-061 (VHH) VHH: VQLQESGGGLVQPGGSLRLSCAASGSRFSLNTMGWYRQAPGKQRELVATVTRGGSTNYANSVKGRFTISRDNAKNTVYLQMNSLRPEDTAVYYCHVDEVRQSTWTTSNLWGQGTQVTVSS

RESULT:
["0.00171 s⁻¹", "0.00121 s⁻¹", "0.00932 s⁻¹", "0.00055 s⁻¹"]

# map each binder to its koff
1. A4-068 (VHH) VHH: VQLQESGGGLVQTGGSLRLSCAASGRAFSLNTMGWYRQAPGKWRELVATVTRGGSTNYAGSVKGRFTISRDNAKNTVYLQMNNLRPEDTAVYYCHVDEVRESSWTTSNLWGQGTQVTVSS
2. A4-095 (VHH) VHH: VQLQESGGGLVQPGGSLRLSCAASGSSFSANTMGWYRQAPGKQRELVATITRGGNTNYGDSVKGRFTISRDNAKDTVYLQMNSLRPEDTAVYYCHIDEIRESTWTTSNLWGQGTQVTVSS

RESULT:
["0.00608 s⁻¹", "0.00133 s⁻¹"]
